Reported pA2 values follow for various compounds
MEASURED_ON: Serotonin (5-HT) receptor
MEASUREMENT_NOTES: Affinity for 5-hydroxytryptamine receptor was determined using male Dawley rat fundus preparation
Type: protein assay
Give the figure by itself; no unit, no explanation.

| COMPOUND | MEASURED_ON | pA2 |
| --- | --- | --- |
| NC1CCc2ccccc2C1 (stereo not given) | Serotonin (5-HT) receptor | 5.61 |
| NCC1=CCOc2ccccc21 | Serotonin (5-HT) receptor | 4.94 |
| NCC1=CCCc2ccccc21 | Serotonin (5-HT) receptor | 5.81 |
| NC1CCc2ccccc2C1=O (stereo not given) | Serotonin (5-HT) receptor | 6.04 |
| NCC(N)c1ccccc1 (racemic) | Serotonin (5-HT) receptor | 4.9 |

Entry CC(N)C(=O)c1ccc(O)cc1 (racemic) , tested on Serotonin (5-HT) receptor, has a reported pA2 of 5.3

Entry CC(N)C(=O)c1ccccc1 (stereo not given) , tested on Serotonin (5-HT) receptor, has a reported pA2 of 5.86

----------
MEASURED_ON: Serotonin (5-HT) receptor
MEASUREMENT_NOTES: Affinity for 5-hydroxytryptamine receptor was determined using male Dawley rat fundus preparation
Type: protein assay
Reported pA2 values follow for various compounds
Give the figure by itself; no unit, no explanation.

// below: answered compounds
| COMPOUND | MEASURED_ON | VALUE_MEASURED |
| --- | --- | --- |
| COc1ccc(C(=O)C(C)N)cc1OC (racemic) | Serotonin (5-HT) receptor | 6.14 |
| COc1ccc2c(c1)C(CN)CCO2 (stereo not drawn) | Serotonin (5-HT) receptor | 5.94 |

Lab note: COc1ccc2c(c1)C(CN)=CCO2 gave pA2 of 6.12
